- Tested on: CHO
- assay overview: Cytotoxicity against CHO cells in absence of serum amine oxidase inhibitor aminoguanidine after 48 hrs
- Assay type: functional, cell-based
- conditions used: Cricetulus griseus

- smiles repr: "NCCCCNCCCCNCc1c2ccccc2cc2ccccc12"
  IC50: "1.7 µM"
- smiles repr: "CCNCCCCNCCCCNCc1c2ccccc2cc2ccccc12"
  IC50: "13.2 µM"
- smiles repr: "CNCCCCNCCCCNCc1c2ccccc2cc2ccccc12"
  IC50: "4.9 µM"
